- TARGET OR TEST SYSTEM: L-lactate dehydrogenase (Plasmodium falciparum (isolate CDC / Honduras))
- PROTOCOL: PfLDH activity inhibition – cell lysate, 3D7 strain, counter-screen for P. falciparum growth inhibition project (AID 2304);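 note: 0% = vehicle and 100% = reference inhibitor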
- ASSAY CONTEXT: P. falciparum 3D7 crude extract, LDH APAD/NBT absorbance; at 2 µM; active compounds read high
Measured inhibition by item
Entry rule: numbers only, all in %.

> print(dat)
                                smiles.repr  test.result
1  O=C(Nc1ccc(CN2CCOCC2)cc1)c1ccc(-c2cc(Cl)ccc2Cl)o1           -1
2  NS(=O)(=O)c1ccc(Nc2nccc(-c3c(-c4cccc(NC(=O)c5c(F)cccc5F)c4)nn4ccccc34)n2)cc1           -7
3  O=[N+]([O-])c1cccc(CNC2CCN(Cc3ccc(-c4ccccc4)cc3)CC2)c1            1
4  CC(C)CCN1CCCN(Cc2ccc(C(=O)Nc3ccc(C(C)(C)C)cc3)cc2)CC1           -1
5  CCCCCCCCCCS(=O)(=O)N[C@H](COCc1cccc(Oc2ccccc2)c1)COP(=O)(O)OC           -8

Enquiry: inhibition of `Oc1ccc(-c2cncc(NCc3ccc(F)c(F)c3)c2)cc1` on L-lactate dehydrogenase (Plasmodium falciparum (isolate CDC / Honduras))?
Return: -3

Enquiry: inhibition of `CC(C)CNc1nc(N)nc2ccc3c(ccn3CC(C)C)c12` on L-lactate dehydrogenase (Plasmodium falciparum (isolate CDC / Honduras))?
Return: -7
